# test_system: T1, human LILRB2 expressed on cells (293T-LILRB2, CHO-K1-LILRB2) (human, UniProt Q8N423 22-597)
# T1 construct: whole, on cells; the cell line is named under assay; also called HEK293T-LILRB2
# T1 sequence (Q8N423 22-597): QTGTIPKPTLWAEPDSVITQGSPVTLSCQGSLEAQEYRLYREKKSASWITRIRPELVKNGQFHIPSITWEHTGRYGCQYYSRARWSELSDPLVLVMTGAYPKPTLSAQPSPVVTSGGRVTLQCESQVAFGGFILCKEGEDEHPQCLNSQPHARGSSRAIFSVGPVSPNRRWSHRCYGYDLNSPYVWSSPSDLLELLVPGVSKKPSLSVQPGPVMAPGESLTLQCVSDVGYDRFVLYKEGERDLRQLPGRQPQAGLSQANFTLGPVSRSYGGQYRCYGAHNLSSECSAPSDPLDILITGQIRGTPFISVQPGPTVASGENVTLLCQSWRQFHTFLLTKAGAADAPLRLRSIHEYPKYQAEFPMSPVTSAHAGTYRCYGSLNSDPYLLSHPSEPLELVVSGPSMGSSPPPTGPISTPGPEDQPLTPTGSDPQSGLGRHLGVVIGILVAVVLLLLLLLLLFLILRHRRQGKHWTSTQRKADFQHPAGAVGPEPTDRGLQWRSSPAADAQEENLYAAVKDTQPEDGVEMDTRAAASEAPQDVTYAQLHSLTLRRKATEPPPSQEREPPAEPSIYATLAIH
# method_notes: flow cytometry, His-HLA-A2 tetramer (competitor) bound to 293T-LILRB2 cells, relative to no antibody
# Design: concentration or dose not given beside the values
property: % no Ab (%)
The response must be a number in % with no trailing unit.

Antibody 2E1_GH6 (antibody, V domains shown) VH: EVQLVESGGGLVQPGGSLRLSCAVSGYSITSGYHWNWIRQAPGKGLEWVAYISYDGNNNYNPSLKNRFTISRDTSKNTFYLQMNSLRAEDTAVYYCAREESTMITTAWFAYWGQGTLVTVSS VL: DIQMTQSPSSLSASVGDRVTITCRASENIYSNLAWYQQKPGKAPKLLIYGATNLASGVPSRFSGSGSGTDYTLTISSLQPEDFATYYCQHFWDTPYTFGQGTKVEIK ... 46.6

Can you look up the measured % no Ab of Antibody 2E1_GB1 (antibody, V domains shown) VH: EVQLVESGGGLVQPGGSLRLSCAVSGYSITSGYSWNWIRQAPGKGLEWVAYISYDGNNNYNPSLKNRFTISRDTSKNTFYLQMNSLRAEDTAVYYCAREESTMITTAWFAYWGQGTLVTVSS VL: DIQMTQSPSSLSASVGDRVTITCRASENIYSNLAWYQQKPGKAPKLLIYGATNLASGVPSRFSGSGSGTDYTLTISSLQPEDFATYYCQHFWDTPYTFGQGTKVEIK for me?
50.9
